Where these numbers come from: a melting point compilation (Tetko et al.; mined from patent text by program, amines drawn as free bases though some values may be those of a salt)

Molecule | melting point
O=C(c1ccc(O)c(Cl)c1)N1CC=CCC1 | 186 to 189 °C
CC1(O)C=CC2C3CCC4=CC(=O)CCC4C3C(c3ccc(-c4ccoc4)cc3)CC21C (stereo not given) | 179 °C
CCOC(=O)N1CCC(c2ccc(COc3ccc(S(C)(=O)=O)cc3)nc2)CC1 | 119 to 121 °C
COc1ccc(-c2cc(C3CCN(C(=O)c4ccccc4)CC3)nc(N)n2)cc1 | 165 to 166 °C
COC(=O)[C@@H]1[C@@H](Cc2ccccc2)C[C@@H]2CC[C@H]1N2C | 79 to 80 °C
O=C1c2ccccc2C(=O)N1CC(Br)(c1ccccc1)C(F)Br (stereo not given) | 163 to 164 °C
N#Cc1ncn2c1[C@@H]1CCCN1C(=O)c1ccccc1-2 | 223 to 225 °C
O=C(O)CCc1cn(Cc2ccc(OCc3ccc(-c4ccccc4)nc3)cc2)nc1-c1ccccc1 | 155 to 156 °C
CC(=C(c1ccccc1)c1ccccc1)P(C1CCCCC1)C1CCCCC1 | 128 to 130 °C
CC1(C)C(=O)Nc2cc3c(cc21)OC(O)N3 (stereo not given) | 297 to 299 °C
O=C(NC/C=C\COc1cc(CN2CCCCC2)ccn1)NC1CCC1 | 130 to 132 °C
CCCCCCC(=O)N[C@H](CCC(=O)O)C(=O)O | 92 to 96 °C
O=C(O)c1ncn2c1[C@@H]1CCN1C(=O)c1cc(F)ccc1-2 | 159 to 160 °C
Cc1ccccc1COc1cccnc1NC(=N)Nc1ccccc1 | 157 to 158 °C
CCc1c2c(c(C)c(C)c1N1CCN(c3ccc(OC)cc3)CC1)OC(C)(C)C2 | 150 to 151 °C
NC(c1ccccc1)c1ccc(OCCCOc2ccc(C(N)c3ccccc3)cc2)cc1 (stereo not given) | 118 to 119 °C
NNC(=O)c1cnc2n(c1=O)CCC2 | 180 to 181 °C
CC(CC(=O)Nc1cccc(/C=C/c2nc(C3CCC3)cs2)c1)C(=O)O (stereo not given) | 165 to 167 °C
CC1(Cc2cc3[nH]c(=O)oc3cc2Br)OCCO1 | 117 to 119 °C
Cc1ccc2oc(-c3ccccc3-c3nnnn3C(c3ccccc3)(c3ccccc3)c3ccccc3)c(Br)c2c1 | 199 to 200 °C
COc1ccc(C(=N)NS(=O)(=O)C=Cc2ccc(Cl)c(Cl)c2)cc1OC | 205 to 210 °C
CC1=NCCc2c1n(-c1ccccc1)c1ccccc21 | 110 to 112 °C
Cc1cnc(C#N)c(C)c1[N+](=O)[O-] | 66 to 71 °C
CCN(CC)C(=O)n1cc(F)c(=O)[nH]c1=O | 157 to 160 °C
Cc1nc(C(=O)COc2ccc(CC3SC(=O)NC3=O)cc2)c(C)o1 (stereo not given) | 161 to 162 °C

----------
Measured property: melting point

Molecule | Readout value
CCOC(=O)c1cc2c3n(ccc-2n1)CC(C(C)(C)C)=N3 | 276 to 278 °C
COc1ccc(N2CCN(c3c(C)c(C=O)c4c(c3C)C(c3ccc(C)cc3)C(C)(C)O4)CC2)cc1 (stereo unspecified) | 175 to 177 °C
O=C(Nc1ncco1)C1c2ccccc2Oc2ccccc21 | 232 to 235 °C
Nc1nc2ccc(CO)cc2o1 | 148 to 150 °C
O=C(N(Cc1cccnc1)c1ccc(Cl)cc1)C(F)(F)F | 80 to 81 °C
O=[N+]([O-])c1cccc2c1ncn2-c1cccc(Br)c1 | 180 to 182 °C
Nc1ccccc1NCCO | 105 to 106 °C
CN(C)c1cc(CC(C#N)CNc2ccccc2)cc(N(C)C)c1N(C)C (stereo unspecified) | 179 to 181 °C
COc1ccc(Nc2ccc(OC)c3ccccc23)cc1C(=O)O | 153 to 154 °C
COC(=O)c1ccc(-c2nc(-c3ccc(Cl)cc3)no2)c([N+](=O)[O-])c1 | 189 to 190 °C
O=C(O)c1ccc(OS(=O)(=O)C(F)(F)F)cc1 | 178 to 180 °C
CCOC(=O)NC1Cc2ccccc2C1Nc1ccc(OC)cc1CO (stereo unspecified) | 142 to 144 °C
COc1ccc2cncc(CCl)c2c1 | 256 to 257 °C
Cc1c(-c2ccc3c(c2)C(N2Cc4ccccc4C2=O)C(O)C(C)(C)O3)c(=O)c1=O (stereo unspecified) | > 250 °C
O=C(CCCCCBr)NC1CCCCC1 | 73 to 74 °C
OC1(O)C(F)(F)CCCC1(Cl)Cl | 30 °C
CC(C)(CO)NCCCn1ccnc1 | 81 to 85 °C
CC(C)Nc1cccnc1N1CCN(C(=O)c2ccc(C(=O)N3CCN(CC(O)CO)CC3)cc2)CC1 (stereo unspecified) | 158 °C
Fc1ccc(Cn2c(NC3CCN(CCNc4nnnn4-c4ccccc4)CC3)nc3ccccc32)cc1 | 171 °C
CC(C)NC(=O)NC[C@H](C)NC(=O)OC(C)(C)C | 101 °C
Cc1ccc2nc(NC(=O)c3ccc(C(C)(C)C)cc3)cn2c1 | 259 to 260 °C
CCCCOc1c(NC(C)C(C)(C)C)c(=O)c1=O (stereo unspecified) | 90 to 99 °C
NC(=O)c1nc(Cl)sc1Cl | 153 °C
Nc1nc2[nH]c(CCC#Cc3ccc(C(=O)N[C@@H](CCC(=O)O)C(=O)O)cn3)cc2c(=O)[nH]1 | 178 to 179 °C
COc1ccc2cc(C(=O)C(C)(C)c3ccccc3)oc2c1 | 93 to 95 °C
CN(C(=O)Nc1nc(OCC(F)(F)F)nc(OCC(F)(F)F)n1)c1ccc(Cl)cc1 | 218 to 219 °C
